The entries below come with measured CRF1R Emax values attached.
system_tested: corticotropin releasing factor 1 receptor; also: reference of the scale not given here
assay_name: cell-based or functional assay
The response must be a number in % with no trailing unit.

Return CRF1R Emax for the following binder: ZGPPISIDLPYQLLRKMIEIEKQEKEKQQAANNRLLLDTI (C-terminal amide) [SEQ ID NO 202]
100
